All figures here come from PubChem BioAssay (NCI).

Here the recorded growth is given for each entry.
System: SF-268 CNS
Test: NCI-60 one-dose screen, 48 h (100 = growth as untreated, 0 = no growth, -100 = all killed)
Settings: 10 µM unless noted
The panel holds about 83,000 compounds, 20% with a hit somewhere; the sample as a whole holds those more often. Active and inactive are the calls of the source. How the source made its calls: active means growth percent below 10; inactive means the rest.
result_type: growth

compound	result_type	result
Nc1c(C(=O)Nc2ccncc2)sc2nc3c(cc12)C(O)CCC3 (centres undefined)	growth	95.1% (inactive)
O=C(NCCCl)Nc1ncccc1OCc1ccccc1	growth	102% (inactive)
Cc1cn(-c2cc(NC(=O)c3cncc(C#Cc4cnc(N)c5ncccc45)c3)cc(C(F)(F)F)c2)cn1	growth	67.2% (inactive)
O=S(=O)(NCCCNc1nccc(-c2c(-c3ccc(F)c(O)c3)nc3sccn23)n1)c1ccccc1	growth	74.4% (inactive)
CC(C)=CC(=O)OCC(=O)O[C@@H]1C[C@]2(C(C)C)O[C@@]1(C)[C@@H]1CC[C@@H](C)[C@H]1[C@@H]2OC(=O)/C=C/c1ccccc1	growth	62.3% (inactive)
COc1ccc(/C=C/C(=O)c2ccc(Nc3ccnc4cc(Cl)ccc34)cc2)cc1	growth	100% (inactive)
c1cnc2c(-c3nc4ccc5[nH]ncc5c4c4c3CCCC4)c[nH]c2c1	growth	40.4% (inactive)
CCOC(=O)c1cc2c(n1Cc1cc(OC)c(OC)c(OC)c1)-c1nc(N)sc1CCC2	growth	70.5% (inactive)
CCC1=C[C@@H]2C[C@]3(C(=O)OC)c4[nH]c5ccccc5c4CC[N@+](CC(=O)Nc4cc5c(cc4OC)N(C)[C@H]4[C@@](O)(C(=O)OC)[C@H](OC(C)=O)[C@]6(CC)C=CCN7CC[C@]54[C@@H]76)(C2)[C@H]13	growth	105% (inactive)
Cc1sc2nc(NCCc3c[nH]c4ccc(Cl)cc34)[nH]c(=O)c2c1C	growth	15.5% (inactive)
CCO/C=N/C1=C(C#N)C(c2ccc(Cl)cc2)c2sc3c(F)cccc3c2O1 (centres undefined)	growth	68.5% (inactive)
O=S(=O)(Nc1cc(Cl)ccc1Cl)c1ccc(-c2cnc(C3CC3)o2)cc1	growth	49.7% (inactive)
COc1ccc(/C=C(\C#N)n2nnc3cc(F)c(F)cc32)cc1	growth	68.6% (inactive)
COc1cc2cc(NCc3cccc(Cl)c3)nc(C)c2cc1OC	growth	41.3% (inactive)
COc1ccc2c(c1)CC[C@H](O)/C2=C/c1cc(OC)c(OC)c(OC)c1	growth	27.1% (inactive)
Nc1n[nH]c2cccc(C#Cc3cccc(C(=O)Nc4cc(C(F)(F)F)cc(C(F)(F)F)c4)c3)c12	growth	68.8% (inactive)
O=C(Nc1cccc(-c2ccc(N3CCOCC3)nn2)c1)Nc1cccc(C(F)(F)F)c1	growth	91.2% (inactive)
C#CCOc1cccc(Nc2ncnc3cc(NC(=O)C=C)ccc23)c1	growth	27.6% (inactive)
NC(=O)c1cc(I)ccc1NC(=O)/C=C/c1ccccc1	growth	29.9% (inactive)

* * *

Tested on: CAKI-1 renal
Assay: NCI-60 one-dose screen, 48 h (100 = growth as untreated, 0 = no growth, -100 = all killed)
Conditions: 10 µM unless noted
Compounds without any hit were thinned out: in the full panel of roughly 83,000, 20% have a hit.
Binarize growth at 40%; below is TRUE, at or above is FALSE.

compound	answer_label
COc1ccc(-c2cc(-c3cccnc3)nc3sc4c(=O)[nH]c(-c5ccc(Cl)cc5)nc4c23)cc1OC	FALSE
COc1cc2c(cc1OC)C(C)N(S(N)(=O)=O)CC2 (stereo not drawn)	FALSE
c1csc(-c2ccc(CNc3c4ccccc4nc4ccccc34)cc2)c1	TRUE
COc1ccc(Nc2nc(-c3cc(O)c(C)c(C)c3O)cs2)cc1	FALSE
COC(=O)[C@@H](CCCCNC(=O)[C@]12CCC(C)(C)C[C@@H]1C1=CC[C@@H]3[C@@]4(C)C/C(=C/c5ccco5)C(=O)C(C)(C)[C@@H]4CC[C@@]3(C)[C@]1(C)CC2)NC(=O)[C@]12CCC(C)(C)C[C@@H]1C1=CC[C@@H]3[C@@]4(C)C/C(=C/c5ccco5)C(=O)C(C)(C)[C@@H]4CC[C@@]3(C)[C@]1(C)CC2	FALSE
N#Cc1nc(-c2ccccc2)oc1S(=O)(=O)N1CCN(c2ccccc2)CC1	FALSE
Cc1cc(C(=O)O)c(C)n1-c1cccc(C(=O)O)c1	TRUE
O=C(/C=C/c1ccccc1)Nc1ncc(Cc2ccccc2Cl)s1	TRUE

* * *

Tested on: SF-268 CNS
Assay: NCI-60 one-dose screen, 48 h (100 = growth as untreated, 0 = no growth, -100 = all killed)
Settings: 10 µM unless noted
Compounds without any hit were thinned out: in the full panel of roughly 83,000, 20% have a hit.
Assign class by growth: not lower than 80% means TRUE; lower than 80% means FALSE.

>>> df
                                 smiles_str  system_under_test  answer_label
0  CN(C)c1ccc(-c2c(C#N)c(N)nn2C(=O)c2ccc(NC(=O)c3ccccn3)cc2)cc1         SF-268 CNS          TRUE
1  O=C(CSc1nc2sc3c(c2c(=O)n1-c1ccccc1)CCCCC3)N/N=C/c1cccc([N+](=O)[O-])c1         SF-268 CNS         FALSE
2  COc1ccc(/C=C/C(=O)c2cccc(OCCCCOc3cccc(C(=O)/C=C/c4ccc(OC)c(OC)c4)c3)c2)cc1OC         SF-268 CNS         FALSE
3  Fc1cccc(Oc2ccc(Nc3ncnc4ccc(OCCCN5CCOCC5)cc34)cc2Cl)c1         SF-268 CNS         FALSE

* * *

Tested on: 786-0 renal
Assay: NCI-60 one-dose screen, 48 h (100 = growth as untreated, 0 = no growth, -100 = all killed)
Conditions: 10 µM unless noted
This is part of a sample that, as a whole, favours compounds with a hit. Of some 83,000 tested, about 20% had one in any assay.
Label rule, in plain words: growth of -70% and up is fulfilled, under -70% is not fulfilled.

compound	answer_label
O=C1NC2(Nc3ccccc31)C(=O)Nc1c(Cl)cc(Cl)cc12 (stereo not given)	fulfilled
CCc1ncnc2c1ccn2C(C)c1ccc(OC)c(F)c1 (stereo not given)	fulfilled
C=C1C(=O)O[C@H]2[C@H]1CC/C(COC(=O)c1cc3ccccc3s1)=C\CC[C@@]1(C)O[C@@H]21	not fulfilled
C#CCNC(=O)[C@H](CC)[C@H]1CC[C@H](C)[C@H]([C@@H](C)[C@H](O)[C@H](C)C(=O)[C@H](CC)C2O[C@]3(C=CC(=O)[C@]4(CC[C@@](C)([C@H]5CC[C@](O)(CC)[C@H](C)O5)O4)O3)[C@H](C)C[C@@H]2C)O1 (stereo not given in full)	fulfilled

* * *

Test system: MOLT-4 leukemia
Assay: NCI-60 one-dose screen, 48 h
Conditions: 10 µM unless noted
Compounds without any hit were thinned out: in the full panel of roughly 83,000, 20% have a hit. The source made the active and inactive calls. Rule for the calls: active = growth percent below 10; inactive = the rest.
Outcomes: active, inactive

>>> df
                                   compound  system_under_test  answer_label
0  N#CC1=C(N)Oc2c(sc3c(Br)cccc23)C1c1ccc(Cl)cc1 (stereo not drawn)    MOLT-4 leukemia        active
1   OB1OCc2cc(/C=C/c3cccc(C(F)(F)F)c3)ccc21    MOLT-4 leukemia        active
2  O=C(CSc1nnc(-c2cnccn2)n1-c1ccccc1)c1ccc(Cl)cc1    MOLT-4 leukemia      inactive
3  COC1=CC(c2ccc[nH]2)=N/C1=C\c1[nH]c(C)c(C(=O)OC(C)C)c1C    MOLT-4 leukemia        active
4  N#CC1=C(c2ccccc2)Nc2c(c(-c3ccc(Cl)cc3)nn2-c2ccccc2)C12C(=O)Nc1ccc(Cl)cc12 (stereo not drawn)    MOLT-4 leukemia      inactive
5  CC(C)=CC(=O)OCC(=O)O[C@@H]1C[C@]2(C(C)C)O[C@@]1(C)[C@@H]1CC[C@@H](C)[C@H]1[C@@H]2OC(=O)/C=C/c1ccccc1    MOLT-4 leukemia      inactive
6  COc1ccc(NC(=O)c2sc3nc(C)c(C(=O)/C=C/c4ccccc4)cc3c2N)cc1    MOLT-4 leukemia      inactive
7  C[C@@H](CO)[C@@H]1CCC=C2CC[C@]3(C)[C@H](CC[C@@H]4[C@@]5(C)CCCNC(C)(C)[C@@H]5CC[C@]43C)[C@H]21    MOLT-4 leukemia      inactive

* * *

Test system: NCI-H322M lung
Assay: NCI-60 one-dose screen, 48 h (100 = growth as untreated, 0 = no growth, -100 = all killed)
Conditions: 10 µM unless noted
About 83,000 compounds went through this panel and 20% of them were active in at least one assay; those are over-represented in the sample as a whole.
Quick rule for you: growth under 90% gets 1, anything else gets 0.

>>> print(df.to_string())
                                 smiles_str  answer_label
0   Nc1c(C(=O)Nc2ccccc2F)sc2nc3c(cc12)CCCC3             1
1  CCOc1ccc(NC(=O)CSc2oc(-c3ccccc3)nc2S(=O)(=O)c2ccc(C)cc2)cc1             1
2  COc1ccc(C(=O)c2cc3c(N)c(C(=O)Nc4ccc(C)cc4)sc3nc2C)cc1             1
3  C=C1C(=O)O[C@H]2[C@H]1CC/C(COC(=O)/C=C\C(=O)NCc1ccc(Cn3c(=O)sn(CCI)c3=O)cc1)=C\CC[C@@]1(C)O[C@@H]21             1
4  CC(C)=CCC[C@](C)(O)[C@H]1CC[C@]2(C)[C@@H]1CC[C@@H]1[C@@]3(C)C/C(=C/c4ccco4)C(=O)C(C)(C)[C@@H]3CC[C@]12C             0
5  O=S(=O)(NCCCNc1nccc(-c2c(-c3ccc(F)c(O)c3)nc3occn23)n1)c1ccc(Cl)cc1             1
